Every entry's value here was drawn from patent US20260116991A1.

# Target or test system: T1, monkey GPC3-His protein (monkey)
# T1 construct: Bought recombinant protein; also called monkey GPC3 protein
# Protocol notes: SPR, antibody captured on Protein A chip, monkey GPC3-His analyte;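 also: run at 25 °C with 240 s association and up to 600 s dissociation, double-referenced, kinetics fitted to a 1:1 Langmuir binding model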
Reported metric: koff (s⁻¹)
Your answer is read as s⁻¹, so omit the unit and give the number.

Field: example entries. Status: answers known.
- Binder: "F1.118.4 (antibody, human IgG1, kappa, V domains shown, Human-murine chimeric antibody) VH: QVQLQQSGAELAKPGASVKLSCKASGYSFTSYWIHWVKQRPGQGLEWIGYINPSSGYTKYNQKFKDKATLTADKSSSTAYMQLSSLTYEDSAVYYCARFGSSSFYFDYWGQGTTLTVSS VL: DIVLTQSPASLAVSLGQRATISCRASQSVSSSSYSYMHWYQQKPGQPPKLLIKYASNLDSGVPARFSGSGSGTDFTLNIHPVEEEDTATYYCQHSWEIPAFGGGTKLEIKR"
  Scale unit: "s⁻¹"
  koff: 0.000102
- Binder: "F3.38.7 (antibody, human IgG1, kappa, V domains shown, Human-murine chimeric antibody) VH: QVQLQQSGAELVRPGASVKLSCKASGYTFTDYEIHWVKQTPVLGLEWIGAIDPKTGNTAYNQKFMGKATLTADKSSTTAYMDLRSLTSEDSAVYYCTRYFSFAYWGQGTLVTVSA VL: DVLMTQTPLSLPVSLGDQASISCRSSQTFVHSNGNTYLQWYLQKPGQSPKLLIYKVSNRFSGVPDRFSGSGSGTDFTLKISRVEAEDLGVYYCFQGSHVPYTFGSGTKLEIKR"
  Scale unit: "s⁻¹"
  koff: 0.000386

Here is the next item to consider.
In plain terms, F4.18.4 (antibody, human IgG1, kappa, V domains shown, Human-murine chimeric antibody) VH: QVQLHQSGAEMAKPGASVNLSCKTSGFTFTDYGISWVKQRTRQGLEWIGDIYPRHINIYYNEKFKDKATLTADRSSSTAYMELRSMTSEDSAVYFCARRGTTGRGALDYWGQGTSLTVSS VL: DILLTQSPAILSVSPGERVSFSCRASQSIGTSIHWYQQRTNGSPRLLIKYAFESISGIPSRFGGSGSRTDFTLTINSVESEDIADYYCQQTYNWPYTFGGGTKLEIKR has a documented koff of 0.000552
